experiment: activity coefficient (dimensionless); of the first substance listed, at infinite dilution; xn = mol fraction of the nth substance listed; conditions: 333.15 K; Liquid; Chromatography; x1 = 0
Respond with satisfied for activity coefficient values of 0.8 and above, not satisfied for values below.

[
  {
    "Compound": "Cc1ccccc1C [1,2-dimethylbenzene] + CN(C)c1cc[n+](COCCCOC[n+]2ccc(N(C)C)cc2)cc1.O=S(=O)([N-]S(=O)(=O)C(F)(F)F)C(F)(F)F.O=S(=O)([N-]S(=O)(=O)C(F)(F)F)C(F)(F)F",
    "Category Label": "satisfied"
  },
  {
    "Compound": "CCO [ethanol] + CCCOC[n+]1ccn(Cc2ccccc2)c1.N#C[N-]C#N",
    "Category Label": "not satisfied"
  },
  {
    "Compound": "CC#N [acetonitrile] + CCCOC[n+]1ccn(Cc2ccccc2)c1.N#C[N-]C#N",
    "Category Label": "not satisfied"
  },
  {
    "Compound": "CC1CCCCC1 [methylcyclohexane] + CCCCCCCCn1cc[n+](COCCCOC[n+]2ccn(CCCCCCCC)c2C)c1C.O=S(=O)([N-]S(=O)(=O)C(F)(F)F)C(F)(F)F.O=S(=O)([N-]S(=O)(=O)C(F)(F)F)C(F)(F)F",
    "Category Label": "satisfied"
  },
  {
    "Compound": "c1ccsc1 [thiophene] + CCCCCCCCn1cc[n+](COCCC)c1C.O=S(=O)([N-]S(=O)(=O)C(F)(F)F)C(F)(F)F",
    "Category Label": "not satisfied"
  }
]

----------
test: activity coefficient (dimensionless); of the first substance listed, at infinite dilution; xn = mol fraction of the nth substance listed; conditions: 343.15 K; Liquid; Chromatography; x1 = 0
Lab note: cut-off is 3. Strictly less in activity coefficient is 1. Exactly 3 or more is -1.

[
  {
    "Compound": "CC(C)CO [2-methyl-1-propanol] + CCCOC[n+]1ccc(N(C)C)cc1.O=S(=O)([N-]S(=O)(=O)C(F)(F)F)C(F)(F)F",
    "Category Label": 1
  },
  {
    "Compound": "C1CCCCC1 [cyclohexane] + CCCOC[n+]1ccn(C)c1.F[B-](F)(F)F",
    "Category Label": -1
  },
  {
    "Compound": "C=CCCCC [hex-1-ene] + CCCOC[n+]1ccn(Cc2ccccc2)c1.O=S(=O)([N-]S(=O)(=O)C(F)(F)F)C(F)(F)F",
    "Category Label": -1
  },
  {
    "Compound": "CCC(C)CC [3-methylpentane] + CCCOC[n+]1ccc(N(C)C)cc1.O=S(=O)([N-]S(=O)(=O)C(F)(F)F)C(F)(F)F",
    "Category Label": -1
  },
  {
    "Compound": "ClCCl [dichloromethane] + CN(C)c1cc[n+](COCCCOC[n+]2ccc(N(C)C)cc2)cc1.O=S(=O)([N-]S(=O)(=O)C(F)(F)F)C(F)(F)F.O=S(=O)([N-]S(=O)(=O)C(F)(F)F)C(F)(F)F",
    "Category Label": 1
  },
  {
    "Compound": "CCCCO [butan-1-ol] + Cn1cc[n+](COCCCOC[n+]2ccn(C)c2)c1.O=S(=O)([N-]S(=O)(=O)C(F)(F)F)C(F)(F)F.O=S(=O)([N-]S(=O)(=O)C(F)(F)F)C(F)(F)F",
    "Category Label": 1
  },
  {
    "Compound": "CC1CCCCC1 [methylcyclohexane] + CCCCCCCCn1cc[n+](COCCC)c1C.O=S(=O)([N-]S(=O)(=O)C(F)(F)F)C(F)(F)F",
    "Category Label": 1
  },
  {
    "Compound": "Cc1ccccc1 [toluene] + CCCOC[n+]1ccn(C)c1.F[B-](F)(F)F",
    "Category Label": -1
  },
  {
    "Compound": "C1CCCCCC1 [cycloheptane] + CCCCCCCCn1cc[n+](COCCCOC[n+]2ccn(CCCCCCCC)c2C)c1C.N#C[N-]C#N.N#C[N-]C#N",
    "Category Label": -1
  },
  {
    "Compound": "CCCCCCCCCC [decane] + CCCCCCCCn1cc[n+](COCCC)c1C.O=S(=O)([N-]S(=O)(=O)C(F)(F)F)C(F)(F)F",
    "Category Label": -1
  },
  {
    "Compound": "CCCCCCCCCCC [undecane] + CN(C)c1cc[n+](COCCCOC[n+]2ccc(N(C)C)cc2)cc1.O=S(=O)([N-]S(=O)(=O)C(F)(F)F)C(F)(F)F.O=S(=O)([N-]S(=O)(=O)C(F)(F)F)C(F)(F)F",
    "Category Label": -1
  },
  {
    "Compound": "CO [methanol] + Cn1cc[n+](COCCCOC[n+]2ccn(C)c2)c1.O=S(=O)([N-]S(=O)(=O)C(F)(F)F)C(F)(F)F.O=S(=O)([N-]S(=O)(=O)C(F)(F)F)C(F)(F)F",
    "Category Label": 1
  }
]
